MEASUREMENT_DESCRIPTION: Aqueous solubility of the compound at pH 4.5 incubated for 24 hrs under shaking condition by LC-UV analysis
Format: physicochemical
COND: aqueous medium
MEASURED_PROPERTY: solubility thermodynamic at 24 h

INSERT INTO measurements (smiles_data, reported_measurement) VALUES
  ('Cn1cc(C(=O)c2ccccc2)c2cc(C(=O)NCCc3c[nH]c4ccccc34)ccc21', '< 1 µg/mL'),
  ('COC(=O)c1ccc2ccc(C(=O)c3ccccc3)c-2cc1', '< 1 µg/mL'),
  ('CN(C)C(=O)Cc1ccc2cccc-2cc1', '> 45 µg/mL'),
  ('CN(C)C(=O)c1cccc2ccccc12', '> 50 µg/mL'),
  ('CN(C)C(=O)c1cn(C)c2ccccc12', '> 51 µg/mL'),
  ('COC(=O)c1ccc2[nH]cc(C(=O)c3ccccc3)c2c1', '< 1 µg/mL');

---

Measured logD values are reported for all entries that follow.
MEASUREMENT_DESCRIPTION: Octanol-water partition coefficient, logD of the compound at pH 2 by HPLC analysis
Type: physicochemical
MEASURED_PROPERTY: logD

INSERT INTO results (smiles_data, reported_measurement) VALUES
  ('Cn1c(NC(=O)Cn2ccccc2=O)cc2ccccc21', 1.5),
  ('NC(=O)C1CCN(C(=O)c2c[nH]c3ccccc23)CC1', 0.3),
  ('CN(C)C(=O)c1c[nH]c2ccccc12', 1.1);

---

MEASUREMENT_DESCRIPTION: Aqueous solubility of the compound at pH 2.2 incubated for 24 hrs under shaking condition by LC-UV analysis
Format: physicochemical
COND: aqueous medium
Measured solubility thermodynamic at 24 h values are reported for all entries that follow.
MEASURED_PROPERTY: solubility thermodynamic at 24 h

INSERT INTO assay_data (compound, reported_measurement) VALUES
  ('CN(C)C(=O)Cc1ccc2ccn(C)c2c1', '> 54 µg/mL'),
  ('CN1CCN(C(=O)c2ccc3[nH]cc(C(=O)c4ccccc4)c3c2)CC1', '> 74 µg/mL'),
  ('COC(=O)c1ccc2c(C(=O)Nc3ccccc3)cn(C)c2c1', '< 1 µg/mL'),
  ('CN(C)C(=O)Cc1ccc2ccccc2c1', '41 µg/mL'),
  ('COC(=O)c1ccc2ccc(C(=O)c3ccccc3)c-2cc1', '< 1 µg/mL'),
  ('CN(C)C(=O)c1cn(C)c2ccccc12', '> 51 µg/mL'),
  ('COC(=O)c1ccc2c(c1)c(C(=O)c1ccccc1)cn2C(=O)c1ccccc1', '< 1 µg/mL'),
  ('COC(=O)c1ccc2ccc(C(=O)N(C)C)c-2cc1', '> 64 µg/mL'),
  ('CN(C)C(=O)Cc1ccc2cc[nH]c2c1', '> 51 µg/mL'),
  ('O=C(NCc1cccnc1)c1ccc2ccc(C(=O)c3ccccc3)c-2cc1', '70 µg/mL'),
  ('O=C(Cn1ccccc1=O)Nc1cc2cccccc-2c1', '4 µg/mL'),
  ('O=C(NCCc1cnc[nH]1)C1=CC2C(C(=O)c3ccccc3)=CN=C2C=C1 (stereo not drawn)', '> 81 µg/mL'),
  ('CN(C)C(=O)c1ccc2cccccc1-2', '> 43 µg/mL'),
  ('COC(=O)c1ccc2c(C(=O)c3ccccc3)cc(C(=O)c3ccccc3)c-2cc1', '< 1 µg/mL'),
  ('NC(=O)C1CCN(C(=O)c2ccc3cccccc2-3)CC1', '> 71 µg/mL'),
  ('Cn1cc(C(=O)c2ccccc2)c2cc(C(=O)NCCO)ccc21', '53 µg/mL'),
  ('O=C(NCCc1c[nH]c2ccccc12)c1ccc2[nH]cc(C(=O)c3ccccc3)c2c1', '< 1 µg/mL'),
  ('COC(=O)c1ccc2[nH]cc(C(=O)c3ccccc3)c2c1', '< 1 µg/mL');

Origin of measurements: ChEMBL document CHEMBL5120825
